Values were extracted from ChEMBL document CHEMBL3044905.

System: Sinapis alba
Assay: Phytotoxic activity against Sinapis alba assessed as inhibition of root growth at 22 +/-2 degC after 72 hr
Format: functional, organism-based
assay_endpoint: EC50 (mM)
Numbers only, in mM.

Recorded results for 2 compounds are shown here.
>>> print(df.to_string())
                                smiles_repr  assay_endpoint  numeric_value
0  O=c1c(O)c(-c2ccc(O)c(O)c2)oc2cc(O)cc(O)c12            EC50           7.05
1  Oc1cc(O)c2c(c1)O[C@H](c1ccc(O)c(O)c1)[C@@H](O)C2            EC50          0.445

Here is the next item to consider.
Consider the compound shown here: O=c1c(O[C@@H]2O[C@H](CO)[C@@H](O)[C@H](O)[C@H]2O)c(-c2ccc(O)c(O)c2)oc2cc(O)cc(O)c12 What is its recorded EC50?
5.91

###

Test system: Lolium perenne
Assay: Phytotoxic activity against Lolium perenne (perennial ryegrass) assessed as inhibition of root growth at 22 +/-2 degC after 72 hr
Type: functional, organism-based
assay_endpoint: EC50 (µM)
Numbers only, in µM.

>>> print(df.to_string())
                                smiles_repr  assay_endpoint  readout_unit  numeric_value
0  Oc1cc(O)c2c(c1)O[C@H](c1ccc(O)c(O)c1)[C@@H](O)C2            EC50            µM            377
1  O=c1c(O)c(-c2ccc(O)c(O)c2)oc2cc(O)cc(O)c12            EC50            µM            273

Consider the compound shown here: O=c1c(O[C@@H]2O[C@H](CO)[C@@H](O)[C@H](O)[C@H]2O)c(-c2ccc(O)c(O)c2)oc2cc(O)cc(O)c12 What is its recorded EC50?
90100
